Biological target: unrelated Fc-fused recombinant protein (negative control)
Assay: ELISA, bacterial lysate on plate-bound antigen, luminescence
VALUE_TYPE: ELISA Fc Control (RLU)
Just the number please, in RLU, no unit attached.

Some binders with known ELISA Fc Control (RLU) results, for comparison:
| BINDER | UNIT_LABEL | ELISA Fc Control (RLU) |
| --- | --- | --- |
| ISOP120BR5P1G4 (designed binder, not shown: small tags and cut ends, FN3 domain (Centyrin); tested as E. coli lysate) LPAPKNLVVSRVTEDSARLSWAGHYRKIRNFDSFLIQYQESEKVGEAIVLTVPGSERSYDLTGLKPGTEYTVSIYGVKFPYYYATADSNPLSAIFTT | RLU | 480 |
| ISOP120HR5P1E2 (designed binder, not shown: small tags and cut ends, FN3 domain (Centyrin); tested as E. coli lysate) LPAPKNLVVSHVTEDSARLSWTAPDAAFDSFEIYYLEGGRGEAIVLTVPGSERSYDLTVLKPGTEYLGTIYGVKCGWASNPLSAIFTT | RLU | 720 |
| ISOP120GR5P1E7 (designed binder, not shown: small tags and cut ends, FN3 domain (Centyrin); tested as E. coli lysate) LPAPKNLVVSRVTEDSARLSWTAPDAAFDSFEIDYWEVESEGEAIILFVPGSERSYDLTGLKPGTEYHVHIVGVKGGTPSYPLWADFTT | RLU | 400 |
| ISOP120BR5P1F1 (designed binder, not shown: small tags and cut ends, FN3 domain (Centyrin); tested as E. coli lysate) LPAPKNLVVSRVTEDSARLSWTFHPTFEGFDSFLIQYQESEKVGEAIVLTVPGSERSYDLTGLKPGTEYTVSIYGVKWTVLRPWLSNPLSAIFTT | RLU | 480 |
| ISOP120BR5P1E8 (designed binder, not shown: small tags and cut ends, FN3 domain (Centyrin); tested as E. coli lysate) LPAPKNLVVSRVTEDSARLSWNGGEYWVPRFDSFLIQYQESEKVGEAIVLTVPGSERSYDLTGLKPGTEYTVSIYGVVWLQWISWTDSNPLSAIFTT | RLU | 480 |

Task: Give its ELISA Fc Control (RLU) value. Item: ISOP120FR5P1E9 (designed binder, not shown: small tags and cut ends, FN3 domain (Centyrin); tested as E. coli lysate) LPAPKNLVVSRVTEDSARLSWTAPDAAFDSFIIYYPEYISNGEAIVLTVPGSERSYDLTGLKPGTEYHVTIGVKGGHSWPLSAIFTT
Output: 320

Task: Give its ELISA Fc Control (RLU) value. Item: ISOP120BR5P1C7 (designed binder, not shown: small tags and cut ends, FN3 domain (Centyrin); tested as E. coli lysate) LPAPKNLVVSRVTEDSARLSWNVTQKEFDSFLIQYQESEKVGEAIVLTVPGSERSYDLTGLKPGTEYTVSIYGVGNRYYTVYDSNPLSAIFTT
Output: 880

Task: Give its ELISA Fc Control (RLU) value. Item: ISOP120BR5P1B7 (designed binder, not shown: small tags and cut ends, FN3 domain (Centyrin); tested as E. coli lysate) LPAPKNLVVSRVTEDSARLSWGAKTRQFDSFLIQYQESEKVGEAIVLTVPGSERSYDLTGLKPGTEYTVSIYGVWWVENHFPVSNPLSAIFTT
Output: 400

Task: Give its ELISA Fc Control (RLU) value. Item: ISOP120GR5P1E1 (designed binder, not shown: small tags and cut ends, FN3 domain (Centyrin); tested as E. coli lysate) LPAPKNLVVSRVTEDSARLSWTAPDAAFDSFIIQYAEDSSWGEAINLHVPGSERSYDLTGLKPGTEYHVHIYGVKGGEASNPLWAWFTT
Output: 320
